molecular target: human CB1R (Homo sapiens, UniProt P21554); construct: host or cells: CHO; assay: PathHunter β-arrestin recruitment assay, hCB1R; type: cell-based; settings: read-out: hCB1R: beta arrestin EC50
Sequence (P21554 whole entry): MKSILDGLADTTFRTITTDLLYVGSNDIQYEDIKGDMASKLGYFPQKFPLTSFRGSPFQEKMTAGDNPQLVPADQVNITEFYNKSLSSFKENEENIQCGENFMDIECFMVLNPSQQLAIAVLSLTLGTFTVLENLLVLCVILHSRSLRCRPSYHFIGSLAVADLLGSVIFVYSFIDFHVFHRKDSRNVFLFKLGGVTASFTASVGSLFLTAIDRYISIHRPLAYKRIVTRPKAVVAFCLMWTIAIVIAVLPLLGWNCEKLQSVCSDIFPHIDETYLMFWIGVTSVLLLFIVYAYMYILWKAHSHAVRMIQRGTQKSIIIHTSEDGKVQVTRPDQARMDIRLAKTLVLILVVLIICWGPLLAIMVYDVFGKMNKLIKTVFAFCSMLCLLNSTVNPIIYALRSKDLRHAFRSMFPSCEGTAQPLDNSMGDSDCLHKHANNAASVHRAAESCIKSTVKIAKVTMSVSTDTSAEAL
pEC50: −log10 of the molar value.
assay-metric: pEC50

smiles-representation | assay-result
CC(C)(C)c1nc(N2CC[C@H](O)C2)c2nnn(Cc3nnnn3C3CC3)c2n1 | < 4.52

----------
assay: Plasma protein binding (equilibrium dialysis), human plasma; type: in vitro ADME; settings: pH 7.4, read-out: Plasma Protein Binding: FREE Fraction human
assay-metric: fraction unbound at 5 h, 1000 nM

molecule | assay-result
CC(C)(C)c1nc(N2CC[C@H](O)C2)c2nnn(Cc3nnnn3C3CC3)c2n1 [RO6871304] | 0.13

----------
target: CYP2C9 (Homo sapiens, UniProt P11712); experiment: Cytochrome P450 inhibition assay, CYP2C9; assay type: in vitro ADME; conditions: read-out: IC50 CYP2C9
Sequence (P11712 whole entry): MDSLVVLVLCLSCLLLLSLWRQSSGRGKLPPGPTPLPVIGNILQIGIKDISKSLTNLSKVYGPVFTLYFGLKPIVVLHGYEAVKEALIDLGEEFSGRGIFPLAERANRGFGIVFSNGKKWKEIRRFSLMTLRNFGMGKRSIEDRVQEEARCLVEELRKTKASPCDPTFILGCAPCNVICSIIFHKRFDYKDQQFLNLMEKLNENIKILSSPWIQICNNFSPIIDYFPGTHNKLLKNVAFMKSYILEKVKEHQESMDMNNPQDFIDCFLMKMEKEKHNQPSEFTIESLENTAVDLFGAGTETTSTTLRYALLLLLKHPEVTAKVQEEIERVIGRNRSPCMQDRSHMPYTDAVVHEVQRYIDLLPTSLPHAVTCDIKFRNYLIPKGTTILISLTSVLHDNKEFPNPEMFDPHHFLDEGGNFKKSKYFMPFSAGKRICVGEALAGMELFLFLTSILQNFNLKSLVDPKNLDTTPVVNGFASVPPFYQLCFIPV
# key: entry, value: IC50
assay-metric: IC50 (µM)

molecule | target-desc | assay-metric | qualifier-sign | assay-result
CC(C)(C)c1nc(N2CC[C@H](O)C2)c2nnn(Cc3nnnn3C3CC3)c2n1 [RO6871304] | CYP2C9 (Homo sapiens, UniProt P11712) | IC50 | = | 16
CCCCCCC(C)(C)c1cc(OC)c(C2=C[C@H]3CC[C@]2(CO)C3(C)C)c(OC)c1 [HU910, reference compound] | CYP2C9 (Homo sapiens, UniProt P11712) | IC50 | > | 50
Cc1nc([C@](C)(CC2CC2)NC(=O)c2cc(OCC(F)(F)F)c(C3CC3)cn2)no1 [RO6871085] | CYP2C9 (Homo sapiens, UniProt P11712) | IC50 | = | 8
CNC(=O)[C@@H](NC(=O)c1cc(OCC2(C)COC2)c(C2CC2)cn1)C(C)(C)C [RO6851228] | CYP2C9 (Homo sapiens, UniProt P11712) | IC50 | > | 50

----------
target: mouse CB2R (Mus musculus); test: biochemical; type: binding; parameters: bgal (beta-galactosidase fragment of the PathHunter system, named only in the cell line's name); host or cells: CHO-K1 (CHOK1mCB2_bgal); conditions: [3H]-CP55940 displacement; read-out: mouse CB2R: Ki
Sequence (P47936 whole entry, the tested form may be a part): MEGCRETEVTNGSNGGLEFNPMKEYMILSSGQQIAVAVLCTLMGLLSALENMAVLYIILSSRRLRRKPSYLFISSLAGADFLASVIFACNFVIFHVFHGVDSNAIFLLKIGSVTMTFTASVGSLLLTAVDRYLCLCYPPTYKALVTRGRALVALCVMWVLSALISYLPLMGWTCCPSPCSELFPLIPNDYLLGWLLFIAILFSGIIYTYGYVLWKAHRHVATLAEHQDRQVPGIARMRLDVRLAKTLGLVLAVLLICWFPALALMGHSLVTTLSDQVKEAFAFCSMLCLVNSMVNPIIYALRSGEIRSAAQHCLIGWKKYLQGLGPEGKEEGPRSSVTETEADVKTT
pKi: −log10 of the molar value.

compound | pKi
CC(C)(C)c1nc(N2CC[C@H](O)C2)c2nnn(Cc3nnnn3C3CC3)c2n1 [RO6871304] | 7.47
CCCCCCC(C)(C)c1cc(OC)c(C2=C[C@H]3CC[C@]2(CO)C3(C)C)c(OC)c1 [HU910, reference compound] | 6.56

----------
target: CYP2C9 (Homo sapiens, UniProt P11712); experiment: Cytochrome P450 inhibition assay, CYP2C9; type: in vitro ADME
pIC50: −log10 of the molar value.

compound | pIC50
CCCCCCC(C)(C)c1cc(OC)c([C@H]2C=C(CO)[C@H]3C[C@@H]2C3(C)C)c(OC)c1 [HU308, reference compound] | < 4.30

----------
test: in vivo; settings: male, C57Bl/6, mouse, in vivo, iv
Listed next: entries and their corresponding half-life.

molecule | half-life / h
CC(C)(C)c1nc(N2CC[C@H](O)C2)c2nnn(Cc3nnnn3C3CC3)c2n1 | 0.32
CCCCCCC(C)(C)c1cc(OC)c([C@H]2C=C(CO)[C@H]3C[C@@H]2C3(C)C)c(OC)c1 [HU308, reference compound] | 2.15

----------
test: Octanol/water distribution coefficient (logD); conditions: octanol/water, pH 7.4

compound | logD
CCCCCCC(C)(C)c1cc(OC)c([C@H]2C=C(CO)[C@H]3C[C@@H]2C3(C)C)c(OC)c1 [HU308, reference compound] | 4.29

----------
experiment: in vivo; conditions: male, C57Bl/6, mouse, in vivo, iv, 2 mg/kg

compound | clearance
CCCCCCC(C)(C)c1cc(OC)c([C@H]2C=C(CO)[C@H]3C[C@@H]2C3(C)C)c(OC)c1 [HU308, reference compound] | 36.6 mL/min/kg

----------
# pH of solution in PEG400 30% per record follows
Test: Saturation solubility in selected solvents/vehicles
Type: physicochemical
Conditions: solubility sample
Description: Saturation Solubility (= Thermodynamic Solubility) Approximately 8.6 mg test compound per milliliter solvent/vehicle was stirred in HPLC vials (9 × 12 × 32 mm, Waters) at 350 rpm for 15 h. Samples of 10 µL each were taken and microscopically examined for presence of solid particles. […] Addition of solid material was repeated up to 96 h or until residual solid particles could be detected. […] The filtrates were diluted in ethanol and analyzed for content by UPLC. […]

compound | pH of solution in PEG400 30%
CC(C)(C)c1nc(N2CC[C@H](O)C2)c2nnn(Cc3nnnn3C3CC3)c2n1 | 6.1
CCCCCCC(C)(C)c1cc(OC)c([C@H]2C=C(CO)[C@H]3C[C@@H]2C3(C)C)c(OC)c1 [HU308, reference compound] | 5.1
CCCCCCC(C)(C)c1cc(OC)c(C2=C[C@H]3CC[C@]2(CO)C3(C)C)c(OC)c1 [HU910, reference compound] | 6.0
CNC(=O)[C@@H](NC(=O)c1cc(OCC2(C)COC2)c(C2CC2)cn1)C(C)(C)C | 7.4

----------
molecular target: CYP3A4 (Homo sapiens, UniProt P08684); assay: Cytochrome P450 inhibition assay, CYP3A4; format: in vitro ADME; conditions: read-out: IC50 CYP3A4
Sequence (P08684 whole entry): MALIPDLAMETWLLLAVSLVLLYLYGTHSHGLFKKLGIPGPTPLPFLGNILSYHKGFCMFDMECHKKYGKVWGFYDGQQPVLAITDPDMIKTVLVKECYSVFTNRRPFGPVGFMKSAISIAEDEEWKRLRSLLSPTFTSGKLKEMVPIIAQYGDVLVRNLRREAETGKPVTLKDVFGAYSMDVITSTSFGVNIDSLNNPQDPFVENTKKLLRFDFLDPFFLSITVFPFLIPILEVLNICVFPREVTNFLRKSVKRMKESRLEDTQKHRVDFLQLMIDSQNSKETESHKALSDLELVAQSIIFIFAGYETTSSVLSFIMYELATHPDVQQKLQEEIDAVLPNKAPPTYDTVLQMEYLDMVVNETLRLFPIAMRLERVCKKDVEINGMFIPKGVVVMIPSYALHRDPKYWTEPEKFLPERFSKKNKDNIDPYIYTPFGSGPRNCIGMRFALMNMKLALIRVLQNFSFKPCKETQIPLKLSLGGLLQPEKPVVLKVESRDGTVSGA
pIC50: −log10 of the molar value.
Reported pIC50 values for a set of compounds

compound | qualifier-sign | pIC50
CNC(=O)[C@@H](NC(=O)c1cc(OCC2(C)COC2)c(C2CC2)cn1)C(C)(C)C | < | 4.30
Cc1nc([C@](C)(CC2CC2)NC(=O)c2cc(OCC(F)(F)F)c(C3CC3)cn2)no1 | = | 4.43
CCCCCCC(C)(C)c1cc(OC)c(C2=C[C@H]3CC[C@]2(CO)C3(C)C)c(OC)c1 [HU910, reference compound] | = | 4.43
CC(C)(C)c1nc(N2CC[C@H](O)C2)c2nnn(Cc3nnnn3C3CC3)c2n1 | < | 4.30

----------
Measured solubility, listed per entry for reference.
experiment: Saturation solubility in selected solvents/vehicles; assay type: physicochemical; conditions: pH 6, aqueous with cosolvent or surfactant or cyclodextrin, thermodynamic from solid, 200 mM glycocholic acid, 200 mM lecithin in water for injection, pH 6; n = 1; RO6871085 as hydrochloride salt; read-out: Solubility in Mixed Micelles
assay-metric: solubility (µg/mL)

molecule | qualifier-sign | assay-result
CC(C)(C)c1nc(N2CC[C@H](O)C2)c2nnn(Cc3nnnn3C3CC3)c2n1 [RO6871304] | > | 1800
Cc1nc([C@](C)(CC2CC2)NC(=O)c2cc(OCC(F)(F)F)c(C3CC3)cn2)no1 [RO6871085] | = | 200
CCCCCCC(C)(C)c1cc(OC)c(C2=C[C@H]3CC[C@]2(CO)C3(C)C)c(OC)c1 [HU910, reference compound] | = | 4400
CNC(=O)[C@@H](NC(=O)c1cc(OCC2(C)COC2)c(C2CC2)cn1)C(C)(C)C [RO6851228] | > | 1600

----------
assay: Chemical stability (aqueous stability assay ASTA); format: physicochemical; conditions: aqueous buffer; pH 4, 2 h, 37 °C; read-out: Chemical Stability in Aqueous Buffer at pH 4 (% remaining after 2 h at 37 °C)
# remaining at 2 h per record follows

compound | measurement-units | remaining at 2 h
CC(C)(C)c1nc(N2CC[C@H](O)C2)c2nnn(Cc3nnnn3C3CC3)c2n1 | % | 100
CNC(=O)[C@@H](NC(=O)c1cc(OCC2(C)COC2)c(C2CC2)cn1)C(C)(C)C | % | 100
CCCCCCC(C)(C)c1cc(OC)c(C2=C[C@H]3CC[C@]2(CO)C3(C)C)c(OC)c1 [HU910, reference compound] | % | 93
Cc1nc([C@](C)(CC2CC2)NC(=O)c2cc(OCC(F)(F)F)c(C3CC3)cn2)no1 | % | 99

----------
assay: Saturation solubility in selected solvents/vehicles; type: physicochemical; details: solubility sample; RO6871085 as hydrochloride salt
Measured pH of solution in Mixed Micelles accompanies every entry in the list below.
assay-metric: pH of solution in Mixed Micelles

compound | assay-metric | assay-result
Cc1nc([C@](C)(CC2CC2)NC(=O)c2cc(OCC(F)(F)F)c(C3CC3)cn2)no1 | pH of solution in Mixed Micelles | 6.1
CNC(=O)[C@@H](NC(=O)c1cc(OCC2(C)COC2)c(C2CC2)cn1)C(C)(C)C | pH of solution in Mixed Micelles | 6.6
CCCCCCC(C)(C)c1cc(OC)c(C2=C[C@H]3CC[C@]2(CO)C3(C)C)c(OC)c1 [HU910, reference compound] | pH of solution in Mixed Micelles | 6.2
CC(C)(C)c1nc(N2CC[C@H](O)C2)c2nnn(Cc3nnnn3C3CC3)c2n1 | pH of solution in Mixed Micelles | 6.6
